Give cell count for every item shown.
# Experiment Summary: sensitizers of A549 cells to miR-34 induction, primary screen, imaging, A549 dox-inducible miR-34, nuclei and caspase counts (AID 1347080)
# Condition Details: A549 miR-34 inducible, Hoechst nuclei count, 48 h; measured here: total cells with miR-34 induction; stronger effect = lower value
Answers are plain numbers.

// each compound listed below needs its cell count
1. Oc1cccc2cccnc12
2. COc1ccc(CC2NCCc3cc(OC)c(OC)cc32)cc1OC (stereo not given)
3. CN1C[C@H](C(=O)N[C@]2(C)O[C@@]3(O)[C@@H]4CCCN4C(=O)[C@H](Cc4ccccc4)N3C2=O)C=C2c3cccc4[nH]cc(c34)C[C@H]21
4. CCC(C)(C)O
5. CC[C@H]1C2C[C@H]3[C@@H]4N(C)c5ccccc5C45C[C@H](C2[C@H]5O)N3[C@@H]1O (stereo not given in full)

-- reply
8140
9220
8820
9020
8780

* * *

# Experiment Summary: CellTiter-Glo luminescent readout of SW480 viability loss, NPC library primary (AID 1117343)
# Condition Details: CellTiter-Glo luminescence; at 20 µM (top of the series)
Active and inactive are the calls of the source.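 The calls were made as follows: active = compounds that lower viability of the colon cancer cells in the luminescence readout, with no numeric limit stated; inactive = the rest.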
Log the outcome using a class from True = active, False = inactive

Before answering, review these 8 worked examples.
-- ask Which outcome did this test record for the compound CC(Cc1ccc(O)cc1)NCC(O)c1cc(O)cc(O)c1 (configuration not stated) ?
-- reply False

-- ask For CC(Cc1ccccc1)NC=O (configuration not stated) , what call appears in the results of this test?
-- reply False

-- ask Which outcome did this test record for the compound CN1C(=O)NC(=O)C(C)(C2=CCCCC2)C1=O (configuration not stated) ?
-- reply False

-- ask Just curious, what result did `C[C@@H]1CC[C@H]2[C@@H](C)C(=O)O[C@@H]3O[C@@]4(C)CC[C@@H]1[C@]32OO4` get here?
-- reply False

-- ask Name the outcome recorded for `CCCCCCCCOC(=O)c1ccccc1C(=O)OCCCCCCCC` in the assay.
-- reply False

-- ask Which outcome did this test record for the compound COc1cc(N)c(Cl)cc1C(=O)NC1CN2CCC1CC2 (configuration not stated) ?
-- reply False

-- ask Recorded test outcome, item `CCCCCCCCCCCC[N+](C)(C)CCOc1ccccc1`
-- reply True

-- ask Could you please tell me the result logged for `Fc1cc(Br)ccc1CBr` in this assay?
-- reply False

# evaluate next
-- ask # outcome recorded in this test, key = `O=C(O)Cc1ccccc1`
-- reply False

* * *

Give red/green cell ratio (normalised) for every item shown.
# Experiment Summary: differential killing of epithelial or mesenchymal cells, primary screen, imaging, PC-3E GFP, TEM4-18 mCherry, co-culture (AID 1345086);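 note: normalised mesenchymal count divided by normalised epithelial count so high means epithelial killing; cells exposed to compound for 72 h before imaging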
# Condition Details: imaging cell counts, at 1 µM, actives lie on both sides
Give bare numbers.

Parameters: items (list). Returns: red/green cell ratio (normalised) for each item.
1. COC(=O)[C@@H]1C[C@H](OC(C)=O)C(=O)[C@H]2[C@@]1(C)CC[C@H]1C(=O)O[C@H](c3ccoc3)C[C@]21C
2. CC(C)c1ccc2c(c1O)CC[C@H]1C3=C(CC[C@]21C)C(=O)OC3
3. ClC1C(Cl)C(Cl)C(Cl)C(Cl)C1Cl (stereo not given)
4. O=C(O)CC[N+](=O)[O-]
5. COc1cc2c3cc1Oc1c(OC)c(OC)cc4c1[C@@H](Cc1cccc(c1)Oc1ccc(c(O)c1)C[C@@H]3N(C)CC2)N(C)CC4
6. COc1ccc(/C=C/c2cc(O)cc(O)c2)cc1
7. CC(C)(C)NCC(O)c1ccccc1Cl (stereo not given)
8. CCNC1(c2cccs2)CCCCC1=O (stereo not given)

-- reply
1.04
0.95
1.19
1.06
1.03
1.08
0.9
0.77
